Tested on: EpCAM
Assay: Spot phage ELISA, EpCAM
Assay type: binding, human
Settings: spot phage ELISA signal-to-noise on EpCAM
Where no end group is shown, it is not given here.
Returns the class for an entry based on its S/N. Class ranges: class 0 (below 8), class 1 (8 to below 20), class 2 (20 or more)

**Query** The entry to classify is GPTQSHYGQCGGKGYNGYFVCSGTTCQWKAKTDSQCLPGAS (disulfide (positions not given here)) [EpCAM CBD 15] ; which class holds it?
**Result** class 1

**Query** The entry to classify is GPTQSHYGQCGGLGYLGMMQCSGTTCQYIQREISQCLPGAS (disulfide (positions not given here)) [EpCAM CBD 29] ; which class holds it?
**Result** class 1

**Query** The entry to classify is GPTQSHYGQCGGTGYFGMMRCSGTTCQHVFLERSQCLPGAS (disulfide (positions not given here)) [EpCAM CBD 53] ; which class holds it?
**Result** class 1

**Query** The entry to classify is GPTQSHYGQCGGSGYYGAIMCSGTTCQYMRAMQSQCLPGAS (disulfide (positions not given here)) [EpCAM CBD 79] ; which class holds it?
**Result** class 0

**Query** The entry to classify is GPTQSHYGQCGGVGYHGMIVCSGTTCQWKPSVYSQCLPDAS (disulfide (positions not given here)) [EpCAM CBD 76] ; which class holds it?
**Result** class 0

**Query** The entry to classify is GPTQSHYGQCGGYGYPGLACSGTTCQYTYYMRSQCLPGAS (disulfide (positions not given here)) [EpCAM CBD 71] ; which class holds it?
**Result** class 1

**Query** The entry to classify is CKQDSDCLLVCLGPNGFCG (disulfide (positions not given here)) [EpCAM EET I-II 28] ; which class holds it?
**Result** class 1

**Query** The entry to classify is GPTQSHYGQCGGFGYTGAIGCSGTTCQHVKYMRSQCLPGAS (disulfide (positions not given here)) [EpCAM CBD 7] ; which class holds it?
**Result** class 2

**Query** The entry to classify is GCPRILMRCKQDSDCQPICG (disulfide (positions not given here)) [EpCAM EET I-II 21] ; which class holds it?
**Result** class 1

**Query** The entry to classify is GPTQSHYGQCGGQGYHGYIMCSGTTCQYYTPYTSQCLPGAS (disulfide (positions not given here)) [EpCAM CBD 68] ; which class holds it?
**Result** class 1

**Query** The entry to classify is GPTQSHYGQCGGGGYRGVVCSGTTCQPFFVFGSQCLPGAS (disulfide (positions not given here)) [EpCAM CBD 22] ; which class holds it?
**Result** class 1

**Query** The entry to classify is GPTQSHYGQCGGGGYHGIICSGTTCQSREVVRSQCLPGAS (disulfide (positions not given here)) [EpCAM CBD 84] ; which class holds it?
**Result** class 0

**Query** The entry to classify is GPTQSHYGQCGGSGYHGAILCSGTTCQYVEVSRSQCLPGAS (disulfide (positions not given here)) [EpCAM CBD 10] ; which class holds it?
**Result** class 2
